assaySystem: D(1A) dopamine receptor (Homo sapiens)
testDescription: Antagonist of Human D 1 Dopamine Receptor: qHTS; also: % is scaled to controls: 0 for no effect and ±100 for the full control effect
measurementConditions: HEK293 TREx D1 cells, calcium flux, dopamine EC80; at 10 µM; stronger effect = lower value
In all, about 360,000 compounds went through this assay and about 11,000 (3.1%) were called active. This excerpt belongs to a sample that is enriched for actives.
testReadout: activity change, negative = inhibition (%)

INSERT INTO measurements (molecule, testreadout, readoutvalue) VALUES
  ('O=C(CSc1nnc(-c2cccs2)n1Cc1ccco1)c1ccc2c(c1)OCO2', 'activity change, negative = inhibition', -31.7),
  ('COc1ccc(NC(=O)C(c2ccccc2)N2Cc3ccccc3C2=O)cc1 (stereo not given)', 'activity change, negative = inhibition', -6.94),
  ('O=C(Nc1ccccc1)O/N=C1/CCCc2occc21', 'activity change, negative = inhibition', 7.6),
  ('CC(C)(COC(=O)Nc1ccccc1)COC(=O)Nc1ccccc1', 'activity change, negative = inhibition', -3.78),
  ('CC(=O)c1c(C)n(S(=O)(=O)c2ccc(Cl)cc2)c2ccc(NS(=O)(=O)c3ccc(Cl)cc3)cc12', 'activity change, negative = inhibition', 0.214);
